test system: A375 (Melanoma); experiment: Bliss excess, mean over the matrix (fraction); higher = more synergy
readout.kind: Bliss excess
Numbers only.

C[C@@H]1COCCN1c1cc(C2([S@](C)(=N)=O)CC2)nc(-c2ccnc3[nH]ccc23)n1 [AZD6738] + C1CC(C1)(C(=O)[O-])C(=O)[O-].N.N.[Pt+2] [Carboplatin] (first compound max 10 µM, 7x7, partner max 10 µM) : -0.0113
CN(CCO)CC[C@H](CSc1ccccc1)Nc1ccc(S(=O)(=O)NC(=O)c2ccc(N3CCC([C@@H](O)c4ccccc4-c4ccc(Cl)cc4)CC3)cc2)cc1S(=O)(=O)C(F)(F)F [AZD4320] + CN(C)CCCOc1ccc(-c2ccc3ncc4c(c3c2)n(C2CCOCC2)c(=O)n4C)cn1 [AZD0156] (first compound max 1 µM, 7x7, partner max 1 µM) : -0.0357

Please turn your attention to the following entry.
Would you kindly share the measured Bliss excess for COc1nnc2ccc(N3CCC(c4ccc(OCCN5CCN(C)C(=O)[C@H]5C)cc4)CC3)nn12 [AZD5153] + CC1(C)CCC(CN2CCN(c3ccc(C(=O)NS(=O)(=O)c4ccc(NCC5CCOCC5)c([N+](=O)[O-])c4)c(Oc4cnc5[nH]ccc5c4)c3)CC2)=C(c2ccc(Cl)cc2)C1 [Venetoclax] (first compound max 1 µM, 7x7, partner max 1 µM) ?
-0.057

====

Exercise: for every item that follows, state its recorded combination Emax.
system: C32 (Melanoma); assay: combination Emax (second highest fraction inhibited in the dose matrix, 72 h); higher = more inhibition; extreme values may be limits of the assay

Cc1cc2ncnn2cc1Nc1ncc2c(n1)n(C1CCOCC1)c(=O)n2C [AZD7648] + CCN(CCO)CCCOc1ccc2c(Nc3cc(CC(=O)Nc4cccc(F)c4)[nH]n3)ncnc2c1 [AZD2811] (first compound max 10 µM, 7x7, partner max 1 µM) : 0.279
CCN(CCO)CCCOc1ccc2c(Nc3cc(CC(=O)Nc4cccc(F)c4)[nH]n3)ncnc2c1 [AZD2811] + C=CCn1c(=O)c2cnc(Nc3ccc(N4CCN(C)CC4)cc3)nc2n1-c1cccc(C(C)(C)O)n1 [AZD1775] (first compound max 1 µM, partner max 1 µM) : 0.359
CC1(C)CCC(CN2CCN(c3ccc(C(=O)NS(=O)(=O)c4ccc(NCC5CCOCC5)c([N+](=O)[O-])c4)c(Oc4cnc5[nH]ccc5c4)c3)CC2)=C(c2ccc(Cl)cc2)C1 [Venetoclax] + CCN(CCO)CCCOc1ccc2c(Nc3cc(CC(=O)Nc4cccc(F)c4)[nH]n3)ncnc2c1 [AZD2811] (first compound max 1 µM, 7x7, partner max 1 µM) : 0.385

Hi, could you look up combination Emax for each item in my list?
1. CCc1c2c(nc3ccc(O)cc13)-c1cc3c(c(=O)n1C2)COC(=O)[C@]3(O)CC [SN-38] + CN(C)CCCOc1ccc(-c2ccc3ncc4c(c3c2)n(C2CCOCC2)c(=O)n4C)cn1 [AZD0156] (first compound max 0.3 µM, 7x7, partner max 1 µM)
2. Cn1cnc2c(F)c(Nc3ccc(Br)cc3Cl)c(C(=O)NOCCO)cc21 [Selumetinib] + CCN(CCO)CCCOc1ccc2c(Nc3cc(CC(=O)Nc4cccc(F)c4)[nH]n3)ncnc2c1 [AZD2811] (first compound max 10 µM, 7x7, partner max 1 µM)
3. Cc1c2c(nn1C)CSCc1cc(n(C)n1)CSc1cc(c3ccccc3c1)OCCCc1c(C(=O)O)n(C)c3c-2c(Cl)ccc13 [AZD5991] + CS(=O)(=O)CCNCc1ccc(-c2ccc3ncnc(Nc4ccc(OCc5cccc(F)c5)c(Cl)c4)c3c2)o1 [Lapatinib] (first compound max 1 µM, 7x7, partner max 10 µM)

0.688
0.999
0.228

Would you kindly share the measured combination Emax for CC(=O)c1c(C)c2cnc(Nc3ccc(N4CCNCC4)cn3)nc2n(C2CCCC2)c1=O [Palbociclib] + CC1(C)CCC(CN2CCN(c3ccc(C(=O)NS(=O)(=O)c4ccc(NCC5CCOCC5)c([N+](=O)[O-])c4)c(Oc4cnc5[nH]ccc5c4)c3)CC2)=C(c2ccc(Cl)cc2)C1 [Venetoclax] (first compound max 10 µM, 7x7, partner max 1 µM) ?
0.0845

====

tested on: SUP-HD1 (Hodgkin's Lymphoma); experiment: Bliss excess, mean over the matrix (fraction); higher = more synergy
readout.kind: Bliss excess

The following compounds have reported results that may help.
C=CCn1c(=O)c2cnc(Nc3ccc(N4CCN(C)CC4)cc3)nc2n1-c1cccc(C(C)(C)O)n1 [AZD1775] + C1CN(CCC1(C(=O)N[C@@H](CCO)C2=CC=C(C=C2)Cl)N)C3=NC=NC4=C3C=CN4 [Capivasertib] (first compound max 3 µM, partner max 3 µM) : -0.0378
Cc1c2c(nn1C)CSCc1cc(n(C)n1)CSc1cc(c3ccccc3c1)OCCCc1c(C(=O)O)n(C)c3c-2c(Cl)ccc13 [AZD5991] + C=CCn1c(=O)c2cnc(Nc3ccc(N4CCN(C)CC4)cc3)nc2n1-c1cccc(C(C)(C)O)n1 [AZD1775] (first compound max 1 µM, partner max 1 µM) : -0.106
Cc1cc2ncnn2cc1Nc1ncc2c(n1)n(C1CCOCC1)c(=O)n2C [AZD7648] + C=CCn1c(=O)c2cnc(Nc3ccc(N4CCN(C)CC4)cc3)nc2n1-c1cccc(C(C)(C)O)n1 [AZD1775] (first compound max 10 µM, partner max 1 µM) : -0.0943

Please turn your attention to the following entry.
Would you kindly share the measured Bliss excess for NC1(C(=O)N[C@@H](CCO)c2ccc(Cl)cc2)CCN(c2ncnc3[nH]ccc23)CC1 [Capivasertib] + CC(C)n1c(=O)n(C)c2cnc3cc(F)c(-c4ccc(OCCCN5CCCCC5)nc4)cc3c21 [AZD1390] (first compound max 10 µM, 7x7, partner max 0.3 µM) ?
-0.136

====

tested on: NCI-H1648 (Lung Adenocarcinoma); experiment: combination Emax (second highest fraction inhibited in the dose matrix, 72 h); higher = more inhibition; extreme values may be limits of the assay
Exercise: for every item that follows, state its recorded combination Emax.
One number for each entry.

The following compounds have reported results that may help.
CN(CCO)CC[C@H](CSc1ccccc1)Nc1ccc(S(=O)(=O)NC(=O)c2ccc(N3CCC([C@@H](O)c4ccccc4-c4ccc(Cl)cc4)CC3)cc2)cc1S(=O)(=O)C(F)(F)F [AZD4320] + C[C@@H]1COCCN1C2=NC(=NC(=C2)C3(CC3)[S@](=N)(=O)C)C4=C5C=CNC5=NC=C4 [AZD6738] (first compound max 1 µM, 7x7, partner max 10 µM) : 0.872
Cc1cc2ncnn2cc1Nc1ncc2c(n1)n(C1CCOCC1)c(=O)n2C [AZD7648] + COc1cc([C@@H]2c3cc4c(cc3[C@@H](O[C@@H]3O[C@@H]5CO[C@@H](C)O[C@H]5[C@H](O)[C@H]3O)[C@H]3COC(=O)[C@H]23)OCO4)cc(OC)c1O [Etoposide] (first compound max 10 µM, 7x7, partner max 10 µM) : 0.424
COc1cc2c(cc1OCCCCCOc1cc3c(cc1OC)C(=O)N1C=C(C)C[C@H]1C=N3)N=C[C@@H]1CC(C)=CN1C2=O [SG3199] + O=C(c1cc(Cc2n[nH]c(=O)c3ccccc23)ccc1F)N1CCN(C(=O)C2CC2)CC1 [Olaparib] (first compound max 0.001 µM, 7x7, partner max 10 µM) : 0.129

Hi, could you look up combination Emax for each item in my list?
1. C[C@@H](c1ccc2nccn2c1)n1nnc2ncc(-c3cnn(C)c3)nc21 [Savolitinib] + CC1(C)CCC(CN2CCN(c3ccc(C(=O)NS(=O)(=O)c4ccc(NCC5CCOCC5)c([N+](=O)[O-])c4)c(Oc4cnc5[nH]ccc5c4)c3)CC2)=C(c2ccc(Cl)cc2)C1 [Venetoclax] (first compound max 1 µM, 7x7, partner max 1 µM)
2. CS(=O)(=O)CCNCc1ccc(-c2ccc3ncnc(Nc4ccc(OCc5cccc(F)c5)c(Cl)c4)c3c2)o1 [Lapatinib] + C[C@@H](Oc1cc(-c2cnn(C3CCNCC3)c2)cnc1N)c1c(Cl)ccc(F)c1Cl [Crizotinib] (first compound max 10 µM, 7x7, partner max 10 µM)

1: 0.153; 2: 0.971

====

system: SBC-5 (Small Cell Lung Carcinoma); assay: combination Emax (second highest fraction inhibited in the dose matrix, 72 h); higher = more inhibition; extreme values may be limits of the assay
readout.kind: combination Emax
Numbers only.

C[C@@H](c1ccc2nccn2c1)n1nnc2ncc(-c3cnn(C)c3)nc21 [Savolitinib] + Cc1c2c(nn1C)CSCc1cc(n(C)n1)CSc1cc(c3ccccc3c1)OCCCc1c(C(=O)O)n(C)c3c-2c(Cl)ccc13 [AZD5991] (first compound max 1 µM, 7x7, partner max 1 µM) : 0.538
C=CCn1c(=O)c2cnc(Nc3ccc(N4CCN(C)CC4)cc3)nc2n1-c1cccc(C(C)(C)O)n1 [AZD1775] + O=C(c1cc(Cc2n[nH]c(=O)c3ccccc23)ccc1F)N1CCN(C(=O)C2CC2)CC1 [Olaparib] (first compound max 1 µM, partner max 10 µM) : 0.507

Please turn your attention to the following entry.
Would you kindly share the measured combination Emax for CC1(C)CCC(CN2CCN(c3ccc(C(=O)NS(=O)(=O)c4ccc(NCC5CCOCC5)c([N+](=O)[O-])c4)c(Oc4cnc5[nH]ccc5c4)c3)CC2)=C(c2ccc(Cl)cc2)C1 [Venetoclax] + CN(C)CCCOc1ccc(-c2ccc3ncc4c(c3c2)n(C2CCOCC2)c(=O)n4C)cn1 [AZD0156] (first compound max 1 µM, 7x7, partner max 1 µM) ?
0.163
